Source of measurements: patent US20220324953A1

assay target: T1, human CTGF (antigen of the Biacore assays) (human, UniProt P29279 27-349)
T1 construct: also called antigen human CTGF; human CTGF protein
T1 sequence (looked up): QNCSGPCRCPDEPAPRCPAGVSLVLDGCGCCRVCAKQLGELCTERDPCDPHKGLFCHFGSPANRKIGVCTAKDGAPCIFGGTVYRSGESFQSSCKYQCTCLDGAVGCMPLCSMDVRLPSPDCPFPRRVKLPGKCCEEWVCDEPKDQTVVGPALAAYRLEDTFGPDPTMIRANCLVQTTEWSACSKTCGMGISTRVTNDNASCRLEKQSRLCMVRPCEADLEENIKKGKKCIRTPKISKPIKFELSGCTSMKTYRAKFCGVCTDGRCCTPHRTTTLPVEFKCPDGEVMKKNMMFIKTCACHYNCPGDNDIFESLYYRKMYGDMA
assay: Biacore, antibody captured on Protein A, CTGF in flow, 1:1 fit
endpoint: Kd (nM)
Write it as a number; the unit nM goes unstated.

Below: 2 binders and their reported Kd.
# binder, Kd, nM
data = [
    ("Hu164-68wl (antibody, human IgG1, lambda, V domains shown) VH: EVTLKESGPVLVKPTETLTLTCTVSGFSLSTFGVHWIRQPPGKGLEWLGVIWRRGGTDYNAAFMSRLTISKDTSKSQVVFTMTNMDPVDTATYYCARDGGFDYWGQGTTVTVSS VL: ETVVTQEPSFSVSPGGTVTLTCRSSIGAVTTSNYANWVQQTPGQAFRGLIGGTSNRAPGVPDRFSGSILGNKAALTITGAQADDESDYYCALWYSTHYVFGGGTKLTVLG", 0.302),
    ("chimeric antibody Ch147 (antibody, human IgG1, kappa, V domains shown) VH: EVQLVESGGGLVQPEGSLKLSCAASGFSFNTYAMNWVRQAPGKGLEWVARIRTKSNNYATYYADSVKDRFTISRDDSESMLYLQMNNLKTEDTAMYYCVETGFAYWDQGTLVTVSA VL: QIVLTQSPAIMSASPGEKVTITCSASSSVSYMHWFQQKPGTSPKLWIYSTSNLASGVPARFSGSGSGTSYSLTISRMEAEDAATYYCQQRSSYPLTFGAGTKLELKR", 0.466),
]

Query block: For the binder chimeric antibody Ch95 (antibody, human IgG1, kappa, V domains shown) VH: EVLLQQSGPVLVKPGPSVKISCKASGFTFTNYDIHWVKQSHGKSLEWIGLVYPYNGGTAYNQKFKDKATLTFDTSSSTAYMELNSLTSEDSAVYYCARWGLIPGTTSYFDVWGTGTTVTVSS VL: QIVLSQSPPILSASPGEKVTMTCRASSSVSYIHWYQQKPRSSPKPWIYATSNLASGVPARFSGSGSGTSYSLTISRVEAEDAATYYCQQWNSNPWTFGGGTRLEIKR , give its reported Kd.
Result block: 3.85
